run_description: qHTS RealTime-Glo MT Cell Viability Assay in HEK293 cells - 24 hour (AID 1224886); further: top concentration of the series differs between compounds; on the % scale 0 is the no-effect control and ±100 the full control effect; nearly all actives have a fitted effect of over 50% in size
condition_parameters: RealTime-Glo luminescence; series mostly up to 76.8 µM
Records with an inconclusive call do not appear. The source made the active and inactive calls. The call rests on the fitted dose curve; in most records, active means well fitted cell-killing curve with a large enough effect in the repeat runs; inconclusive means weak or mixed curves, or effect the other way; inactive means flat fitted curve, though single readings scatter.
measurement_kind: activity change, negative = cytotoxicity

Quick check: activity change, negative = cytotoxicity of CN(C)c1ccc(/C=C/c2ccc([N+](=O)[O-])cc2)cc1 ?
-4.06% [at 6.97 µM] (inactive)

// query activity change, negative = cytotoxicity value for entry NCC(=O)O
3.07% [at 15.8 µM] (inactive)

Requested read-out: activity change, negative = cytotoxicity. Entry: C/C(=C(\CCOP(=O)(O)O)SC(=O)c1ccccc1)N(C=O)Cc1cnc(C)nc1N
2.35% [at 6.97 µM] (inactive)

Which activity change, negative = cytotoxicity is listed for CC(CSC(=O)c1ccccc1)C(=O)N1C[C@@H](Sc2ccccc2)C[C@H]1C(=O)O (some centres not stated) ?
-5.81% [at 15.8 µM] (inactive)

What value of activity change, negative = cytotoxicity has been recorded for this entry: O=C(O)CNCC(=O)O
-8.06% [at 6.97 µM] (inactive)

For the compound Brc1c2ccccc2c(Br)c2ccccc12 , what activity change, negative = cytotoxicity is on record?
1.98% [at 6.97 µM] (inactive)

Dear colleague, I am looking for the recorded activity change, negative = cytotoxicity of the following compound: C/C=C/C(=O)CC
0.822% [at 15.8 µM] (inactive)
